# condition parameters: in n-butanol, 283.15 K
measurement kind: solubility (mole fraction)
One number for each entry.

Prompt: For the compound shown here, `O=C(O)c1cccc(O)c1O` , give the reported solubility (mole fraction).
Completion: 0.0683

###

# condition parameters: in n-butanol, 303.15 K
measurement kind: solubility (mole fraction)
One number for each entry.

Prompt: For the compound shown here, `O=C(O)c1cccc(O)c1O` , give the reported solubility (mole fraction).
Completion: 0.0806

###

# condition parameters: in acetone, 283.15 K
measurement kind: solubility (mole fraction)
Give bare numbers.

Prompt: For the compound shown here, `O=C(O)c1cccc(O)c1O` , give the reported solubility (mole fraction).
Completion: 0.0987
